TEST METHOD NOTES: Stability in cynomolgus monkey plasma assessed as parent compound remaining at 2 uM after 6 hrs by LC-MS/MS analysis relative to initial concentration
Type: ADME, cell-free, Macaca fascicularis
ASSAY CONDITIONS: read-out: Stability

- SMILES STRING: "N=C(N)NC(=O)OCc1cccc(-c2cnc(N3CCOCC3)nc2)c1.O=C(O)C(O)C(O)C(=O)O"
  remaining at 6 h, 2 µM [%]: 103

---

ASSAYED TARGET: CYP2C8 (Homo sapiens)
Sequence (P10632 whole entry): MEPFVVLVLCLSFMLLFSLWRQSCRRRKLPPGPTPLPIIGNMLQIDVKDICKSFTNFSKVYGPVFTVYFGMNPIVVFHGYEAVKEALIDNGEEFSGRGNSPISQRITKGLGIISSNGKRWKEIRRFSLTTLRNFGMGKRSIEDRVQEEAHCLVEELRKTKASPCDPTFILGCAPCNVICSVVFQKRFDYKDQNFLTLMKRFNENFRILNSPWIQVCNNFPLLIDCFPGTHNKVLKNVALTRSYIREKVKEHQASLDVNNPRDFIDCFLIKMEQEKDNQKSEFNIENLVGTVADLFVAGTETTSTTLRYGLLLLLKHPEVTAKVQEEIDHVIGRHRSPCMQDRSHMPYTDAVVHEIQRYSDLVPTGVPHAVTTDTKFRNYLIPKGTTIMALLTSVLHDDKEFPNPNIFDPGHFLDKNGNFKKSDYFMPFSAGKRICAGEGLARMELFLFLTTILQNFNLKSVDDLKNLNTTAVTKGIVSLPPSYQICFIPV
TEST METHOD NOTES: Inhibition of CYP2C8 in human liver microsomes using amodiaquine as substrate assessed as residual activity at 5 uM after 20 mins by HPLC analysis
Type: ADME
ASSAY CONDITIONS: probe amodiaquine, read-out: Activity
Hi, to clarify the labels: met covers activity at 20 min, 5 µM from 80% upward, not met covers anything below 80%.

- SMILES STRING: "N=C(N)NC(=O)OCc1cccc(N2CCC(Oc3cccnc3)CC2)c1F.O=C(O)C(O)C(O)C(=O)O"
  ASSAYED TARGET: "CYP2C8 (Homo sapiens)"
  LABEL VALUE: "not met"
- SMILES STRING: "Cl.Cl.Cl.N=C(N)NC(=O)OCc1cccc(N2CCN(c3ccncc3)CC2)c1"
  ASSAYED TARGET: "CYP2C8 (Homo sapiens)"
  LABEL VALUE: "not met"
- SMILES STRING: "Cl.Cl.Cl.N=C(N)NC(=O)OCc1cccc(N2CCN(c3cccnc3)CC2)c1"
  ASSAYED TARGET: "CYP2C8 (Homo sapiens)"
  LABEL VALUE: "met"
- SMILES STRING: "N=C(N)NC(=O)OCc1cccc(N2CCN(c3cccnc3)CC2)c1F.O=C(O)C(O)C(O)C(=O)O"
  ASSAYED TARGET: "CYP2C8 (Homo sapiens)"
  LABEL VALUE: "met"
- SMILES STRING: "N=C(N)NC(=O)OCc1cccc(-c2cnc(N3CCOCC3)nc2)c1.O=C(O)C(O)C(O)C(=O)O"
  ASSAYED TARGET: "CYP2C8 (Homo sapiens)"
  LABEL VALUE: "met"
- SMILES STRING: "Cc1ccc(OC2CN(c3cccc(COC(=O)NC(=N)N)c3F)C2)cn1.O=C(O)C(O)C(O)C(=O)O"
  ASSAYED TARGET: "CYP2C8 (Homo sapiens)"
  LABEL VALUE: "met"
- SMILES STRING: "Cc1ncccc1OC1CN(c2cccc(COC(=O)NC(=N)N)c2F)C1.O=C(O)C(O)C(O)C(=O)O"
  ASSAYED TARGET: "CYP2C8 (Homo sapiens)"
  LABEL VALUE: "not met"

Recorded values, source ChEMBL document CHEMBL4043269.
